Values were extracted from the supplement of paper PMC10567573.

Some variants, each annotated with its measured protein stability index.
B1: HESX1 (parent)
chain: ENKPSTCSFSIERILGLDQKKDCV

- Variants of: B1
- assay-overview: protein stability index of a GFP-peptide fusion (GPS, HEK-293T) (PSI 1-6); higher = more stable;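 note: lentivirally expressed fusions sorted by FACS into six bins by GFP to DsRed ratio, PSI derived from sequencing read proportions per bin multiplied by bin number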
- experimental-context: c terminus: a fixed tail appended
Answer as a number with no unit attached.

>  <var>
R13M

>  <observed-value>
1.9

$$$$

Proceed to the following item.
Could you share which protein stability index value was measured for R13N ?
3.96
